I'd appreciate it if you could supply Kd values for the items below.
# Experimental System: T1, human IGF2^1-67 (mature insulin-like growth factor 2) (human, UniProt P01344 25-91, biotinylated (site not stated) where immobilised on the chip (Tables 1-4))
# T1 construct: mature; also called mature IGF2; biotinylated IGF2
# T1 sequence (P01344 25-91): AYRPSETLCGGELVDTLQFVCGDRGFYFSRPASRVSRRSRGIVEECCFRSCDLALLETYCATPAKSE
# Test Summary: SPR kinetic, biotin-IGF2 on chip, pH 7.4
Express it in nM; write the number only.

**Q:** State the recorded Kd for this entry: domain 11^AB5 Q1632L (receptor, See m5; HI loop mutant) MKSNEHDDCQVTNPSTGHLFDLSSLSGRAGFTAAYAKGWGVYMSICGENENCPPGVGACFGQTRISVGKANKRLRYVDQVLQLVYKDGSPCPSKSGLSYKSVISFVCRPEAGPTNRPMLISLDKLTCTLFFSWHTPLACEQATECSV
**A:** 5.75

**Q:** State the recorded Kd for this entry: domain 11^AB5 K1631R (receptor, See m5; HI loop mutant) MKSNEHDDCQVTNPSTGHLFDLSSLSGRAGFTAAYAKGWGVYMSICGENENCPPGVGACFGQTRISVGKANKRLRYVDQVLQLVYKDGSPCPSKSGLSYKSVISFVCRPEAGPTNRPMLISLDRQTCTLFFSWHTPLACEQATECSV
**A:** 12.3

**Q:** State the recorded Kd for this entry: domain 11^AB5 Q1632A (receptor, See m5; HI loop mutant) MKSNEHDDCQVTNPSTGHLFDLSSLSGRAGFTAAYAKGWGVYMSICGENENCPPGVGACFGQTRISVGKANKRLRYVDQVLQLVYKDGSPCPSKSGLSYKSVISFVCRPEAGPTNRPMLISLDKATCTLFFSWHTPLACEQATECSV
**A:** 3.76

**Q:** State the recorded Kd for this entry: domain 11^AB5 Q1632K (receptor, See m5; HI loop mutant) MKSNEHDDCQVTNPSTGHLFDLSSLSGRAGFTAAYAKGWGVYMSICGENENCPPGVGACFGQTRISVGKANKRLRYVDQVLQLVYKDGSPCPSKSGLSYKSVISFVCRPEAGPTNRPMLISLDKKTCTLFFSWHTPLACEQATECSV
**A:** 11.1
